target: T1, dimeric human LTBR-Fc biotinylated (P1AE2401) (human, UniProt P36941 31-227, biotinylated in vitro); assay: competition ELISA vs lymphotoxin α1β2 (P1AE1235)
T1 construct: bought from R&D Systems (7538-LR); also called human LTBR ECD; not shown: human IgG1 Fc-Fragment
measure: rel. fit top (OD)
Value expressed in OD; do not type the unit.

Here is how some binders turned out for rel. fit top (OD).
Lab note: measured rel. fit top (OD) of P1AF0079 (antibody, human IgG1, kappa, L234A L235A, V domains shown, human IgG1 PG LALA; from transgenic rabbit immunization; also called LTBR (0079)) VH: EVQLLESGGALVQPGGSLRLSCAASGFTFSSYAMSWVRQAPGKGLEWVSVITGSSSSIDYADSVKGRFTISRDNSKNTLYLQMNSLRAEDTAVYYCAKGGSGVWSISTDFDYWGQGTLVTVSS VL: DIQMTQSPSFLSASVGDRVTITCQASQDISNYLNWYQQKPGKAPKHLIYAASSLHSGVPSRFSGSGSGAYFTLTITSLQPEDFATYYCQQSHSTPPTFGPGTKVDIKR was 1.6

Lab note: measured rel. fit top (OD) of P1AE9457 (antibody, human IgG1, kappa, L234A L235A, V domains shown, human IgG1 PG LALA; from transgenic rabbit immunization; also called LTBR (9457)) VH: EVQLLESGGGLVQPGGSLRLSCAASGFTFSNYAMTWVRQAPGKGLEWVSEISGSGGSTYYADSVKGRFTISRDNSKNTLYLQMNSLRAEDTAVYYCAKDDDGAYGDTMDVWGQGTTVTVSS VL: DIQMTQSPSSLSASIGDRVTITCRASQDISNYLNWYQQKPGKAPKLLIYAASALQSGVPSRFSGSGSGTDFTLTISSLQPEDFATYYCQHYKSYPYTFGQGTKVEIRR was 1.4

***
Lab note: measured rel. fit top (OD) of P1AE1873 (CBE11) (antibody, human IgG1, kappa, L234A L235A, V domains shown) VH: EVQLVESGGGLVKPGGSLRLSCAASGFTFSDYYMYWFRQAPGKGLEWVATISDGGSYTYYPDSVKGRFTISRDNAKNSLYLQMSSLRAEDTAVYYCAREENGNFYYFDYWGQGTTVTVSS VL: DIQMTQSPSSLSASVGDRVTITCKAGQDIKSYLSWYQQKPGKAPKLLIYYATRLADGVPSRFSGSGSGTDYTLTISSLQPEDFATYYCLQHGESPWTFGGGTKLEIKR was 1.5
